Documented pKi across a set of compounds
TARGET_OR_SYSTEM: human tPA (Homo sapiens, UniProt P00750)
Sequence (P00750 36-562): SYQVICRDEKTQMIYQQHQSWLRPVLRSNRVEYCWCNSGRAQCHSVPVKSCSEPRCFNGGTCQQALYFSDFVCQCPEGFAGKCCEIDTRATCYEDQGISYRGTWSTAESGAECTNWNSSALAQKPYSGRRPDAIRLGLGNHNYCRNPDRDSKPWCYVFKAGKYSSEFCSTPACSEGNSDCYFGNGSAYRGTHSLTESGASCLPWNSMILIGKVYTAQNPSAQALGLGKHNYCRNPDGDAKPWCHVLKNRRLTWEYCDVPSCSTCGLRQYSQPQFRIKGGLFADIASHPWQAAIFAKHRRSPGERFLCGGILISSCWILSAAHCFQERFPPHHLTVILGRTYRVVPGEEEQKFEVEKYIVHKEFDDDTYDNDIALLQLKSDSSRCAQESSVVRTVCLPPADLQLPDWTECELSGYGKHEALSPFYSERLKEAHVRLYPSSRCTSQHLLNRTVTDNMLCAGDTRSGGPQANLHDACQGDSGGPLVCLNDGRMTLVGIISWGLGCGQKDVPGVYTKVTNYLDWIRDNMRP
EXPERIMENTAL_DETAILS: tPA inhibition assay with chromogenic substrate S-2288 (Dixon plot, Cornish-Bowden plot)
Format: biochemical
CONDITION: tPA Ki, S-2288, 75 nM human tPA, PBS pH 7.4, Dixon plot
Remember the convention: pKi equals -log10 of concentration in molar.

| COMPOUND | TARGET_OR_SYSTEM | ASSAY_METRIC | READOUT_NUMBER |
| --- | --- | --- | --- |
| N=C(N)c1ccc(N)cc1 [4-amino benzamidine, reference compound] | human tPA (Homo sapiens, UniProt P00750) | pKi | 3.83 |

Let us move to another entry and its pKi.
pKi reported for this compound N=C(N)c1ccc(CN)cc1 [4-aminomethyl benzamidine, reference compound] : 2.28
